# Tested on: Bscl2-GFP
# protocol text: ToxTracker genotoxicity assay, Bscl2-GFP reporter induction
# test conditions: GFP induction vs vehicle at 10% cytotoxicity; 3 h exposure with S9, 24 h recovery
readout: Genotoxicity test, With S9 rat liver extract, Bscl 2, 10 (fold)
Reply numerically in fold, unit not repeated.

Which Genotoxicity test, With S9 rat liver extract, Bscl 2, 10 is reported with Bscl2-GFP for this entry: CCCCOCC(CN1CC1C)OC(=O)NCCCCCCN1C(=O)N(CCCCCCNC(=O)OC(COCCCC)CN2CC2C)C1=O (stereo not drawn) ? 1.2

* * *

# Tested on: Rtkn-GFP
# protocol text: ToxTracker genotoxicity assay, Rtkn-GFP reporter induction
# test conditions: GFP induction vs vehicle at 25% cytotoxicity; 24 h exposure, no S9
Catalogue of Genotoxicity test, Without S9 rat liver extract, Rtkn, 25 values
Please state the figure in fold; there is no need to write the unit.

Worked examples, 8 compounds total:
- compound: "CCCCCCCCCC(=O)OCC(CN1CC1C)OC(=O)NC(C)(C)c1cccc(C(C)(C)NC(=O)OC(COC(=O)CCCCCCCCC)CN2CC2C)c1 (stereo not drawn) [Ex. 22]"
  system under test: "Rtkn-GFP"
  quantitative result: 1.0
- compound: "CCCCOCC(CN1CC1C)OC(=O)NC(C)(C)c1cccc(C(C)(C)NC(=O)OC(COCCCC)CN2CC2C)c1 (stereo not drawn) [Ex. 11]"
  system under test: "Rtkn-GFP"
  quantitative result: 1.3
- compound: "CC(CN1CC1C)OC(=O)NC1CCC(CC2CCC(NC(=O)OC(C)CN3CC3C)CC2)CC1 (stereo not drawn) [Comp. Ex. 9, reference compound]"
  system under test: "Rtkn-GFP"
  quantitative result: 2.2
- compound: "CC(CN1CC1C)OC(=O)NCCCCCCNC(=O)OC(C)CN1CC1C (stereo not drawn) [Comp. Ex. 6, reference compound]"
  system under test: "Rtkn-GFP"
  quantitative result: 3.1
- compound: "CC(CN1CC1C)OC(=O)NCCCCCCn1c(=O)n(CCCCCCNC(=O)OC(C)CN2CC2C)c(=O)n(CCCCCCNC(=O)OC(C)CN2CC2C)c1=O (stereo not drawn) [Ex. 1]"
  system under test: "Rtkn-GFP"
  quantitative result: 1.2
- compound: "Cc1ccccc1OCC(CN1CC1C)OC(=O)NCCCCCCn1c(=O)n(CCCCCCNC(=O)OC(COc2ccccc2C)CN2CC2C)c(=O)n(CCCCCCNC(=O)OC(COc2ccccc2C)CN2CC2C)c1=O (stereo not drawn) [Ex. 21]"
  system under test: "Rtkn-GFP"
  quantitative result: 1.3
- compound: "CC(CN1CC1C)OC(=O)NC(C)(C)c1cccc(C(C)(C)NC(=O)OC(C)CN2CC2C)c1 (stereo not drawn) [Comp. Ex. 8, reference compound]"
  system under test: "Rtkn-GFP"
  quantitative result: 2.3
- compound: "CC(CN1CC1C)OC(=O)NCCCCCC/N=c1\\oc(=O)n(CCCCCCNC(=O)OC(C)CN2CC2C)c(=O)n1CCCCCCNC(=O)OC(C)CN1CC1C (stereo not drawn) [Ex. 2]"
  system under test: "Rtkn-GFP"
  quantitative result: 1.0

Requested read-out Genotoxicity test, Without S9 rat liver extract, Rtkn, 25, target or system Rtkn-GFP, entry C=CCOCC(CN1CC1C)OC(=O)NCCCCCCn1c(=O)n(CCCCCCNC(=O)OC(COCC=C)CN2CC2C)c(=O)n(CCCCCCNC(=O)OC(COCC=C)CN2CC2C)c1=O (stereo not drawn) [Ex. 9] 1.1

Please answer likewise for CCCCCCCCCC(=O)OCC(CN1CC1C)OC(=O)NCCCCCCn1c(=O)n(CCCCCCNC(=O)OC(COC(=O)CCCCCCCCC)CN2CC2C)c(=O)n(CCCCCCNC(=O)OC(COC(=O)CCCCCCCCC)CN2CC2C)c1=O (stereo not drawn) [Ex. 24] 1.2

Same again, this time with CCCCCCCCCC(=O)OCC(CN1CC1C)OC(=O)NC1CCC(CC2CCC(NC(=O)OC(COC(=O)CCCCCCCCC)CN3CC3C)CC2)CC1 (stereo not drawn) [Ex. 23] 1.2

Now consider CCCCC(CC)COCC(CN1CC1C)OC(=O)NCCCCCCn1c(=O)n(CCCCCCNC(=O)OC(COCC(CC)CCCC)CN2CC2C)c(=O)n(CCCCCCNC(=O)OC(COCC(CC)CCCC)CN2CC2C)c1=O (stereo not drawn) [Ex. 20] and answer again. 1.3

* * *

In this section, each of the compounds is paired with its reported Genotoxicity test, With S9 rat liver extract, Bscl 2, 10.
# Test system: Bscl2-GFP
# protocol text: ToxTracker genotoxicity assay, Bscl2-GFP reporter induction
# test conditions: GFP induction vs vehicle at 10% cytotoxicity; 3 h exposure with S9, 24 h recovery
// return numeric value only (unit: fold, not printed)

Some solved entries appear below for comparison.
- compound: "CCC(CN1CC1C)OC(=O)NCCCCCCn1c(=O)n(CCCCCCNC(=O)OC(CC)CN2CC2C)c(=O)n(CCCCCCNC(=O)OC(CC)CN2CC2C)c1=O (stereo not shown)"
  quantitative result: 1.1
- compound: "CC(CN1CC1C)OC(=O)NC1CCC(CC2CCC(NC(=O)OC(C)CN3CC3C)CC2)CC1 (stereo not shown) [Comp. Ex. 9, reference compound]"
  quantitative result: 1.2
- compound: "Cc1ccccc1OCC(CN1CC1C)OC(=O)NCCCCCCn1c(=O)n(CCCCCCNC(=O)OC(COc2ccccc2C)CN2CC2C)c(=O)n(CCCCCCNC(=O)OC(COc2ccccc2C)CN2CC2C)c1=O (stereo not shown)"
  quantitative result: 1.0

Now, please, on to the next compound.
Fill in the blank: the reported Genotoxicity test, With S9 rat liver extract, Bscl 2, 10 of CCCCOCC(CN1CC1C)OC(=O)NC1CCC(CC2CCC(NC(=O)OC(COCCCC)CN3CC3C)CC2)CC1 (stereo not shown) is ____. 1.1

* * *

Reported Genotoxicity test, With S9 rat liver extract, Bscl 2, 25 is given for each of the following molecules.
# Test system: Bscl2-GFP
# protocol text: ToxTracker genotoxicity assay, Bscl2-GFP reporter induction
# test conditions: GFP induction vs vehicle at 25% cytotoxicity; 3 h exposure with S9, 24 h recovery
// note: answer is a bare numeric in fold

Hello, I am looking for reported Genotoxicity test, With S9 rat liver extract, Bscl 2, 25 with Bscl2-GFP for CCCCOCC(CN1CC1C)OC(=O)NC1CCC(CC2CCC(NC(=O)OC(COCCCC)CN3CC3C)CC2)CC1 (stereo not shown) . Could you help? 1.0

Same for CC(CN1CC1C)OC(=O)NC(C)(C)c1cccc(C(C)(C)NC(=O)OC(C)CN2CC2C)c1 (stereo not shown) [Comp. Ex. 8, reference compound] 2.1

What do we get for CCCCC(CC)COCC(CN1CC1C)OC(=O)NCCCCCCn1c(=O)n(CCCCCCNC(=O)OC(COCC(CC)CCCC)CN2CC2C)c(=O)n(CCCCCCNC(=O)OC(COCC(CC)CCCC)CN2CC2C)c1=O (stereo not shown) ? 0.8

Can you handle COCCOCCOCCOCCOCCOCCOCCOCCOCCOCCOCCOCCOCCOCC(CN1CC1C)OC(=O)NCCCCCCn1c(=O)n(CCCCCCNC(=O)OC(COCCOCCOCCOCCOCCOCCOCCOCCOCCOCCOCCOCCOCCOC)CN2CC2C)c(=O)n(CCCCCCNC(=O)OC(COCCOCCOCCOCCOCCOCCOCCOCCOCCOCCOCCOCCOCCOC)CN2CC2C)c1=O (stereo not shown) next? 1.1

Okay, and CCCCCCCCCC(=O)OCC(CN1CC1C)OC(=O)NCCCCCCn1c(=O)n(CCCCCCNC(=O)OC(COC(=O)CCCCCCCCC)CN2CC2C)c(=O)n(CCCCCCNC(=O)OC(COC(=O)CCCCCCCCC)CN2CC2C)c1=O (stereo not shown) ? 1.1

What about CCCCOCC(CN1CC1C)OC(=O)NC(C)(C)c1cccc(C(C)(C)NC(=O)OC(COCCCC)CN2CC2C)c1 (stereo not shown) ? 1.3

Also, CCCCOCC(CN1CC1C)OC(=O)Nc1ccc(C)c(NC(=O)OC(COCCCC)CN2CC2C)c1 (stereo not shown) [Comp. Ex. 11, reference compound] please. 1.7

* * *

# Tested on: Rtkn-GFP
# protocol text: ToxTracker genotoxicity assay, Rtkn-GFP reporter induction
# test conditions: GFP induction vs vehicle at 25% cytotoxicity; 3 h exposure with S9, 24 h recovery
readout: Genotoxicity test, With S9 rat liver extract, Rtkn, 25 (fold)
# output: bare number, implied unit fold

Example entries and their recorded answers appear below.
- compound: "CC(CN1CC1C)OC(=O)NC(C)(C)c1cccc(C(C)(C)NC(=O)OC(C)CN2CC2C)c1 (stereo not drawn) [Comp. Ex. 8, reference compound]"
  system under test: "Rtkn-GFP"
  quantitative result: 4.2
- compound: "COCCOCCOCCOCCOCCOCCOCCOCCOCCOCCOCCOCCOCCOCC(CN1CC1C)OC(=O)NCCCCCCn1c(=O)n(CCCCCCNC(=O)OC(COCCOCCOCCOCCOCCOCCOCCOCCOCCOCCOCCOCCOCCOC)CN2CC2C)c(=O)n(CCCCCCNC(=O)OC(COCCOCCOCCOCCOCCOCCOCCOCCOCCOCCOCCOCCOCCOC)CN2CC2C)c1=O (stereo not drawn)"
  system under test: "Rtkn-GFP"
  quantitative result: 1.1
- compound: "CC(CN1CC1C)OC(=O)NC1CCC(CC2CCC(NC(=O)OC(C)CN3CC3C)CC2)CC1 (stereo not drawn) [Comp. Ex. 9, reference compound]"
  system under test: "Rtkn-GFP"
  quantitative result: 2.6
- compound: "CCCCCCCCCC(=O)OCC(CN1CC1C)OC(=O)NC1CCC(CC2CCC(NC(=O)OC(COC(=O)CCCCCCCCC)CN3CC3C)CC2)CC1 (stereo not drawn)"
  system under test: "Rtkn-GFP"
  quantitative result: 1.2
- compound: "CCCCC(CC)COCC(CN1CC1C)OC(=O)NCCCCCCn1c(=O)n(CCCCCCNC(=O)OC(COCC(CC)CCCC)CN2CC2C)c(=O)n(CCCCCCNC(=O)OC(COCC(CC)CCCC)CN2CC2C)c1=O (stereo not drawn)"
  system under test: "Rtkn-GFP"
  quantitative result: 1.1
- compound: "CC(OC(=O)NCCCCCCn1c(=O)n(CCCCCCNC(=O)OC(C)C(C)N2CC2C)c(=O)n(CCCCCCNC(=O)OC(C)C(C)N2CC2C)c1=O)C(C)N1CC1C (stereo not drawn)"
  system under test: "Rtkn-GFP"
  quantitative result: 1.5
- compound: "CCCCOCC(CN1CC1C)OC(=O)NCCCCCCn1c(=O)n(CCCCCCNC(=O)OC(COCCCC)CN2CC2C)c(=O)n(CCCCCCNC(=O)OC(COCCCC)CN2CC2C)c1=O (stereo not drawn)"
  system under test: "Rtkn-GFP"
  quantitative result: 0.8
- compound: "CC(CN1CC1C)OC(=O)NCCCCCCNC(=O)OC(C)CN1CC1C (stereo not drawn) [Comp. Ex. 6, reference compound]"
  system under test: "Rtkn-GFP"
  quantitative result: 3.4
- compound: "CCCCOCC(CN1CC1C)OC(=O)NC1CCC(CC2CCC(NC(=O)OC(COCCCC)CN3CC3C)CC2)CC1 (stereo not drawn)"
  system under test: "Rtkn-GFP"
  quantitative result: 1.0
- compound: "CC(CN1CC1C)OC(=O)NCC1(C)CC(NC(=O)OC(C)CN2CC2C)CC(C)(C)C1 (stereo not drawn) [Comp. Ex. 7, reference compound]"
  system under test: "Rtkn-GFP"
  quantitative result: 2.7

Bench note: what Genotoxicity test, With S9 rat liver extract, Rtkn, 25 did CCCCOCC(CN1CC1C)OC(=O)NCCCCCCNC(=O)OC(COCCCC)CN1CC1C (stereo not drawn) [Comp. Ex. 10, reference compound] show? 2.3

Request: CC1CN1C1CCCCC1OC(=O)NCCCCCCn1c(=O)n(CCCCCCNC(=O)OC2CCCCC2N2CC2C)c(=O)n(CCCCCCNC(=O)OC2CCCCC2N2CC2C)c1=O (stereo not drawn) 1.3
